- EXPERIMENTAL_PROTOCOL: Pharmacokinetic evaluation in Balb/c mice
- Format: in vivo
- ASSAY_CONDITIONS: mouse, in vivo; 5 mg/kg, IV, Balb/c mice; read-out: AUC(0-t)
TEST_READOUT: AUC(0-t) (ng·h/mL)
Answer format: numeric, ng·h/mL implied, no suffix.

What measured AUC(0-t) goes with CCN1CCC[C@@H](Nc2nnc(-c3ccc4sccc4c3O)n(C)c2=O)C1 ?
8300

###

- EXPERIMENTAL_PROTOCOL: In vivo brain-to-plasma ratio in mice
- ASSAY_CONDITIONS: 6 h, male mice, oral 10 mg/kg
In this section we review reported Brain values for a set of compounds.
Express the result in ng/g but write the number alone.

For the compound CCN1CCC[C@@H](Nc2nnc(-c3ccc4sccc4c3O)n(CC)c2=O)C1 , what Brain is on record?
215

Need Brain of CCN1CCC[C@@H](Nc2nnc(-c3ccc4sccc4c3O)n(C)c2=O)C1 , thanks.
104

Others:
What value of Brain has been recorded for this entry: CCn1c(-c2ccc3sccc3c2O)nnc(N[C@@H]2CCCN(C)C2)c1=O
290

Recorded Brain of CN1C[C@H](F)C[C@@H](Nc2nnc(-c3ccc4sccc4c3O)n(C)c2=O)C1 , please.
199

Fill in the blank: the reported Brain of CN1CCC[C@@H](Nc2nnc(-c3ccc4sccc4c3O)n(C)c2=O)C1 is ____.
335

###

- EXPERIMENTAL_PROTOCOL: Pharmacokinetic evaluation in Balb/c mice
- Type: in vivo
- ASSAY_CONDITIONS: mouse, in vivo; 5 mg/kg, IV, Balb/c mice; read-out: Cmax
TEST_READOUT: Cmax (ng/mL)
State just the number; it will be interpreted in ng/mL.

Entry CCN1CCC[C@@H](Nc2nnc(-c3ccc4sccc4c3O)n(C)c2=O)C1 has what Cmax?
1990

###

This section presents compounds with their documented concentration at 2 h values.
- EXPERIMENTAL_PROTOCOL: In vivo distribution of cerebrospinal fluid and plasma
- ASSAY_CONDITIONS: male, mouse, cerebrospinal fluid, iv, 5 mg/kg
Your answer is read as ng/g, so omit the unit and give the number.

Need concentration at 2 h of CCN1C[C@H](F)C[C@@H](Nc2nnc(-c3ccc4sccc4c3O)n(CC)c2=O)C1 , thanks.
1

Consider the additional compound presented here.
Which concentration at 2 h is reported for this compound? CN1C[C@H](F)C[C@@H](Nc2nnc(-c3ccc4sccc4c3O)n(C)c2=O)C1
0.51

###

- EXPERIMENTAL_PROTOCOL: Pharmacokinetic evaluation in Balb/c mice
- Assay type: in vivo
- ASSAY_CONDITIONS: mouse, in vivo; 5 mg/kg, IV, Balb/c mice
TEST_READOUT: clearance (mL/min/kg)
Numbers only; they are read as mL/min/kg.

Can you look up the measured clearance of CCN1CCC[C@@H](Nc2nnc(-c3ccc4sccc4c3O)n(C)c2=O)C1 [Compound 3] for me?
9.67

###

- SYSTEM_UNDER_TEST: NLRP3 inflammasome (Homo sapiens, UniProt Q96P20)
- Construct: host or cells: THP-1 cells
- Sequence (Q96P20 whole entry): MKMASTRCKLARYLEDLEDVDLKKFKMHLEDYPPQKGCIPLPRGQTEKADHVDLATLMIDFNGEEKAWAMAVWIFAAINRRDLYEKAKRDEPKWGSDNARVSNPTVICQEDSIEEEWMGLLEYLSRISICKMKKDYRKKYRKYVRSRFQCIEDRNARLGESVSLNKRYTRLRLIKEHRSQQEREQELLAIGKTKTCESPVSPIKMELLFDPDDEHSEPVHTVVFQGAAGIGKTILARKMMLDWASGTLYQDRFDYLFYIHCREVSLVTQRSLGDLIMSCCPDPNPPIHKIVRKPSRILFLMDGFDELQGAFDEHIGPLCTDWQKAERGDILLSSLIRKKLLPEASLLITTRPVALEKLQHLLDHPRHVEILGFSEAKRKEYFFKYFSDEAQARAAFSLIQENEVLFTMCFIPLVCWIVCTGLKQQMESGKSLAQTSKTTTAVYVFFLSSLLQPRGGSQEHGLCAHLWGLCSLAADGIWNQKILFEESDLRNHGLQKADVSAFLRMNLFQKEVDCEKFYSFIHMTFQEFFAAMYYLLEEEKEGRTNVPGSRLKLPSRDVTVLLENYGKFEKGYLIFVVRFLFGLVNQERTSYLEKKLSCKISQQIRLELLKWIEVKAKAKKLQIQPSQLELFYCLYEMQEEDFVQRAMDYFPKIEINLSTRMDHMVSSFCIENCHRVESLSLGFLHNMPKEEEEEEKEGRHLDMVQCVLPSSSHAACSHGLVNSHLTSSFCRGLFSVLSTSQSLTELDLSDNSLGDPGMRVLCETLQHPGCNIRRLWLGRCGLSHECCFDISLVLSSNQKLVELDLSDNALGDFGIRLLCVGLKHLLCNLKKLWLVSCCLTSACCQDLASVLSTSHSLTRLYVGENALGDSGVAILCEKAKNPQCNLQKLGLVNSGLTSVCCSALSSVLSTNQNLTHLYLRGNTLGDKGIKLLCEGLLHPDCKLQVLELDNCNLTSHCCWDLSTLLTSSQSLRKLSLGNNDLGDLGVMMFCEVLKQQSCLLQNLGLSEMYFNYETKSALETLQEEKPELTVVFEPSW
- EXPERIMENTAL_PROTOCOL: Inhibitory activity of NLRP3 inflammasome in human monocytes (THP-1 cells, LPS + Nigericin, IL-1β ELISA)
- Format: cell-based
- ASSAY_CONDITIONS: read-out: IC50
TEST_READOUT: pIC50
pIC50 here is simply -log10 of the concentration when that concentration is written in mol/L.

Please look up its pIC50: CN1C[C@H](Nc2nnc(-c3ccc4sccc4c3O)n(C)c2=O)CC(F)(F)C1
7.82

GET /values?readout=pIC50&item= O=c1c(N[C@@H]2CCCN(CCO)C2)nnc(-c2ccc3sccc3c2O)n1C1CC1
8.05

pIC50 for [2H]C([2H])([2H])C([2H])([2H])N1CCC[C@@H](Nc2nnc(-c3ccc4ccccc4c3O)n(C)c2=O)C1 ?
7.66

Tell me the measured pIC50 of CN1CCC[C@@H](Nc2nnc(-c3ccc4sccc4c3O)n(C3CC3)c2=O)C1 , please.
8.45
